Source listed as PubChem BioAssay AID1963868.

test system: KRAS PDC tumor spheroids (HUVEC+MSC), viability; test: Anticancer human tumor 254851-301-R-J1-PDC patient-derived colon carcinoma cell line growth inhibition [KRAS2]; details: second compound 0.316 µM; first compound 0.00316 µM; active compounds read low;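 also: spheroids exposed to compounds for seven days before readout; 100% = DMSO vehicle control luminescence of the spheroids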
EXPERIMENTAL READOUT: viability, T/C (%)
I only need the number, in %, no unit after it.

See these solved cases before continuing.
{"COMPOUND": "CC(C)n1nc(-c2ccc3oc(N)nc3c2)c2c(N)ncnc21 + C=CC(=O)N1CCN(c2nc(=O)n(-c3c(C)ccnc3C(C)C)c3nc(-c4c(O)cccc4F)c(F)cc23)C(C)C1", "UNITS SYMBOL": "%", "viability, T/C": 97.7}
{"COMPOUND": "Cn1ncnc1[C@H]1c2n[nH]c(=O)c3cc(F)cc(c23)N[C@@H]1c1ccc(F)cc1 + C=CC(=O)N1CCN(c2nc(OCC3CCCN3C)nc3c2CCN(c2cccc4cccc(C)c24)C3)CC1CC#N", "UNITS SYMBOL": "%", "viability, T/C": 103}
{"COMPOUND": "CCN1CCN(Cc2ccc(Nc3ncc(F)c(-c4cc(F)c5nc(C)n(C(C)C)c5c4)n3)nc2)CC1 + CC1OCC2(CCN(c3cnc(Sc4ccnc(N)c4Cl)c(N)n3)CC2)C1N", "UNITS SYMBOL": "%", "viability, T/C": 93.9}

Supply reported viability, T/C belonging to this compound: CN(C)C/C=C/C(=O)Nc1cc2c(Nc3ccc(F)c(Cl)c3)ncnc2cc1O[C@H]1CCOC1 + C=CC(=O)N1CCN(c2nc(=O)n(-c3c(C)ccnc3C(C)C)c3nc(-c4c(O)cccc4F)c(F)cc23)C(C)C1
96.5

Give the value of viability, T/C reported for the following: CC(C)n1nc(-c2ccc3oc(N)nc3c2)c2c(N)ncnc21 + C=CC(=O)N1CCN(c2nc(OCC3CCCN3C)nc3c2CCN(c2cccc4cccc(C)c24)C3)CC1CC#N
101
